- SYSTEM NAME: ERα (Homo sapiens, UniProt P03372)
- TEST DETAILS: Degradation of ERα in MCF-7 cells (immunoblotting, 4 h)
- Assay type: cell-based
- SETUP CONDITIONS: 10nM compound
REPORTED METRIC: Degradation rate (%) of ERα in MCF-7 cells

[[record]]
compound = "O=C1CCC(N2Cc3c(ccc4c3OCC43CCN(C(=O)C4CCN(C5CCN(c6ccc([C@@H]7c8ccc(O)cc8CC[C@@H]7c7ccccc7)cc6)CC5)CC4)CC3)C2=O)C(=O)N1 (some centres unmarked) [H22]"
system_name = "ERα (Homo sapiens, UniProt P03372)"
assay_value = 64

[[record]]
compound = "C[C@@H]1Cc2c(ccc3[nH]ncc23)C(c2c(F)cc(N3CC4(CCC(N5CCC6(CC5)COc5c6ccc6c5CN(C5CCC(=O)NC5=O)C6=O)CC4)C3)cc2F)N1CC(F)F (some centres unmarked) [G21]"
system_name = "ERα (Homo sapiens, UniProt P03372)"
assay_value = 57

[[record]]
compound = "O=C1CCC(N2Cc3c(ccc4c3OCC43CCN(C4CCN(C(=O)C5CCN(c6ccc([C@@H]7c8ccc(O)cc8CC[C@@H]7c7ccccc7)cc6)CC5)CC4F)CC3)C2=O)C(=O)N1 (some centres unmarked) [H42]"
system_name = "ERα (Homo sapiens, UniProt P03372)"
assay_value = 77

[[record]]
compound = "O=C1CCC(N2Cc3c(ccc4c3OCC43CCN(C(=O)[C@H]4CC[C@@H](N(CC5CC5)C5CCN(c6ccc([C@@H]7c8ccc(O)cc8CC[C@@H]7c7ccccc7)cc6)CC5)CC4)CC3)C2=O)C(=O)N1 (some centres unmarked) [B48]"
system_name = "ERα (Homo sapiens, UniProt P03372)"
assay_value = 74

[[record]]
compound = "C[C@@H]1Cc2c(ccc3[nH]ncc23)C(c2ccc(N3CC4(CCC(N5CCC6(CC5)COc5c6ccc6c5CN(C5CCC(=O)NC5=O)C6=O)CC4)C3)cn2)N1CC(F)(F)F (some centres unmarked) [B49]"
system_name = "ERα (Homo sapiens, UniProt P03372)"
assay_value = 43


* * *

# Lookup of reported Degradation rate (%) of ERα in T-47D cells keyed by entry
- SYSTEM NAME: ERα (Homo sapiens, UniProt P03372)
- Sequence (P03372 1-595): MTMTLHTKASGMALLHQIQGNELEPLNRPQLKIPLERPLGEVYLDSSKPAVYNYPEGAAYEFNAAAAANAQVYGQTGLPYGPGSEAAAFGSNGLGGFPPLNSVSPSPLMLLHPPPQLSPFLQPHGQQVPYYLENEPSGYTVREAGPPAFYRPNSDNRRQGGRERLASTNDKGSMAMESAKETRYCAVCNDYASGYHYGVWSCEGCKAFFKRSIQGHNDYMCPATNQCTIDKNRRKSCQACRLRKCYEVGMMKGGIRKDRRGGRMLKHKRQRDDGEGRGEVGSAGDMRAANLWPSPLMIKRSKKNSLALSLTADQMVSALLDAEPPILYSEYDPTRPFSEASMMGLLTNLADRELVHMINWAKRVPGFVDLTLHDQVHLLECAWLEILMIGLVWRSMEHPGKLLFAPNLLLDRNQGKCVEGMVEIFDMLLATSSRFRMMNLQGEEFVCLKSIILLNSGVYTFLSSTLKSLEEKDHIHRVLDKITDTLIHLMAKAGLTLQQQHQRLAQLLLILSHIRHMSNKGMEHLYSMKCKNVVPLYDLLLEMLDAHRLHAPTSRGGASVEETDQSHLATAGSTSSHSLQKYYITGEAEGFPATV
- TEST DETAILS: Degradation of ERα in T-47D cells (immunoblotting, 4 h)
- Format: cell-based
- Set-up: host or cells: T-47D
- SETUP CONDITIONS: 10nM compound
REPORTED METRIC: Degradation rate (%) of ERα in T-47D cells

[[record]]
compound = "O=C1CCC(N2Cc3c(ccc4c3OCC43CCN(CC4CCN(c5ccc([C@@H]6c7ccc(O)cc7CC[C@@H]6c6ccccc6)cc5)CC4)CC3)C2=O)C(=O)N1 (some centres unmarked) [H8]"
assay_value = -37

[[record]]
compound = "O=C1CCC(N2Cc3c(ccc4c3OCC43CCN(C(=O)C4CCN(CC5(F)CCN(c6ccc([C@@H]7c8ccc(O)cc8CC[C@@H]7c7ccccc7)cc6)CC5)CC4)CC3)C2=O)C(=O)N1 (some centres unmarked) [E1]"
assay_value = 82

[[record]]
compound = "CCNC(=O)[C@@H]1CC(N2CCC3(CC2)COc2c3ccc3c2CN(C2CCC(=O)NC2=O)C3=O)CCN1C1CC2(CCN(c3ccc([C@@H]4c5ccc(O)cc5CC[C@@H]4c4ccccc4)cc3)CC2)C1 (some centres unmarked) [H40]"
assay_value = 86

[[record]]
compound = "O=C1CCC(N2Cc3ccc4c(c3C2=O)OCC2(CCN(C3CC5(CCN(c6ccc([C@@H]7c8ccc(O)cc8CC[C@@H]7c7ccccc7)cc6)CC5)C3)CC2)C4)C(=O)N1 (some centres unmarked) [L9]"
assay_value = 49

[[record]]
compound = "O=C1CCC(N2Cc3c(ccc4c3OCC43CCN(C4CCN(C5CC6(CCN(c7ccc([C@@H]8c9ccc(O)cc9CC[C@@H]8c8ccccc8)cc7)CC6)C5)[C@@H](C(=O)N5CCC(F)(F)CC5)C4)CC3)C2=O)C(=O)N1 (some centres unmarked) [A99]"
assay_value = 82


* * *

- SYSTEM NAME: ERα (Homo sapiens, UniProt P03372)
- TEST DETAILS: Degradation of ERα in MCF-7 cells (immunoblotting, 4 h)
- Type: cell-based
- SETUP CONDITIONS: 10nM compound
- Description: MCF-7 cells were inoculated into 6-well plates at a density of 3×10^5 cells/well and cultured at 37°C, 5% CO2 for 24h. […] Protein immunoblotting: The total protein concentration in the collected cell lysate supernatant was determined by BCA Protein Concentration Assay Kit (Enhanced) (P0009, Beyotime). […] Protein profiles were analyzed by Image Studio Lite analysis software for grayscale values. […]
REPORTED METRIC: Degradation rate (%) of ERα in MCF-7 cells

[[record]]
compound = "O=C1CCC(N2Cc3c(ccc4c3OCC43CCN(C4CC5(CCN(C6CC7(CCN(c8ccc([C@@H]9c%10ccc(O)cc%10CC[C@@H]9c9ccccc9)cc8)CC7)C6)CC5)C4)CC3)C2=O)C(=O)N1 (stereo partly drawn) [G8]"
assay_value = 73

[[record]]
compound = "O=C1CCC(N2Cc3cc4c(cc3C2=O)OC2(CC4)CCN(CC3CCC4(CC3)CCN(c3ccc([C@@H]5c6ccc(O)cc6CC[C@@H]5c5ccccc5)cc3)CC4)CC2)C(=O)N1 (stereo partly drawn) [A40]"
assay_value = 35

[[record]]
compound = "O=C1CCC(N2Cc3c(ccc4c3OCC43CCN(C(=O)CN4CCC5(CC4)CN(c4ccc([C@@H]6c7ccc(O)cc7CC[C@@H]6c6ccccc6)cc4)C5)CC3)C2=O)C(=O)N1 (stereo partly drawn) [B17]"
assay_value = 61

[[record]]
compound = "C[C@@H]1Cc2c(ccc3[nH]ncc23)C(c2ccc(N3CCC(C(=O)N4CCC(N5CCC6(CC5)COc5c6ccc6c5CN(C5CCC(=O)NC5=O)C6=O)CC4)CC3)cn2)N1CC(F)(F)F (stereo partly drawn) [B42]"
assay_value = 26

[[record]]
compound = "O=C1CCC(N2Cc3c(ccc4c3OCC43CCN(CC(=O)N4CC5(C4)CN(c4ccc([C@@H]6c7ccc(O)cc7CC[C@@H]6c6ccccc6)cc4)C5)CC3)C2=O)C(=O)N1 (stereo partly drawn) [B21]"
assay_value = 55

[[record]]
compound = "O=C1CCC(N2C(=O)c3ccc4c(c3C2=O)OCC42CCN(C3CC4(CCN(c5ccc([C@@H]6c7ccc(O)cc7CC[C@@H]6c6ccccc6)cc5)CC4)C3)CC2)C(=O)N1 (stereo partly drawn) [L17]"
assay_value = 10

[[record]]
compound = "O=C1CCC(N2Cc3c(ccc4c3OCC43CCN(C(=O)[C@H]4C[C@H](OC5CCN(c6ccc([C@@H]7c8ccc(O)cc8CC[C@@H]7c7ccccc7)cc6)CC5)C4)CC3)C2=O)C(=O)N1 (stereo partly drawn) [K48]"
assay_value = 42

[[record]]
compound = "O=C1CCC(N2C(=O)c3cc4c(cc3C2=O)OC2(CCN(C(=O)CN3CCC5(CC3)CCN(c3ccc([C@@H]6c7ccc(O)cc7CC[C@@H]6c6ccccc6)cc3)CC5)CC2)C4)C(=O)N1 (stereo partly drawn) [A64]"
assay_value = 47

[[record]]
compound = "CN(CC1CCN(c2ccc([C@@H]3c4ccc(O)cc4CC[C@@H]3c3ccccc3)cc2)CC1)[C@H]1CC[C@@H](C(=O)N2CCC3(CC2)COc2c3ccc3c2CN(C2CCC(=O)NC2=O)C3=O)CC1 (stereo partly drawn) [B34]"
assay_value = 71

[[record]]
compound = "O=C1CCC(N2Cc3cc4c(cc3C2=O)CCC2(CN(C3CCC5(CC3)CCN(c3ccc([C@@H]6c7ccc(O)cc7CC[C@@H]6c6ccccc6)cc3)CC5)C2)O4)C(=O)N1 (stereo partly drawn) [A33]"
assay_value = 26

[[record]]
compound = "O=C1CCC(N2Cc3c(ccc4c3OCC43CCN(C[C@H]4CC[C@@H](C#Cc5ccc([C@@H]6c7ccc(O)cc7CC[C@@H]6c6ccccc6)cc5)CC4)CC3)C2=O)C(=O)N1 (stereo partly drawn) [H53]"
assay_value = 14

[[record]]
compound = "O=C1CCC(N2Cc3c(ccc4c3OCC43CCN(CC(=O)N4CCC5(CC4)CCN(c4ccc([C@@H]6c7ccc(O)cc7CC[C@@H]6c6ccccc6)cc4)C5)CC3)C2=O)C(=O)N1 (stereo partly drawn) [A72]"
assay_value = 64

[[record]]
compound = "O=C1CCC(N2Cc3c(ccc4c3OCC43CCN(CC(=O)N4CCC5(CCC(C#Cc6ccc([C@@H]7c8ccc(O)cc8CC[C@@H]7c7ccccc7)cc6)CC5)CC4)CC3)C2=O)C(=O)N1 (stereo partly drawn) [B29]"
assay_value = 16

[[record]]
compound = "N#CC1(C(=O)N2CCC(N3CCC4(CC3)COc3c4ccc4c3CN(C3CCC(=O)NC3=O)C4=O)CC2)CCN(c2ccc([C@@H]3c4ccc(O)cc4CC[C@@H]3c3ccccc3)cc2)CC1 (stereo partly drawn) [K35]"
assay_value = 64

[[record]]
compound = "O=C1CCC(N2Cc3c(ccc4c3OCC43CCN(C4CCC5(CC4)CCN(c4ccc([C@@H]6c7ccc(O)cc7CC[C@@H]6c6ccccc6)cc4)CC5)CC3)C2=O)C(=O)N1 (stereo partly drawn) [L15]"
assay_value = 57

[[record]]
compound = "O=C1CCC(N2Cc3c(ccc4c3OCC43CCN([C@@H]4CCN(CC5CCN(c6ccc([C@@H]7c8ccc(O)cc8CC[C@@H]7c7ccccc7)cc6)CC5)C[C@@H]4F)CC3)C2=O)C(=O)N1 (stereo partly drawn) [J6]"
assay_value = 68

[[record]]
compound = "O=C1CCC(N2Cc3c(ccc4c3OCC43CCN(CC4CCN(CC5CCN(c6ccc([C@@H]7c8ccc(O)cc8CC[C@@H]7c7ccccc7)cc6)CC5)CC4)CC3)C2=O)C(=O)N1 (stereo partly drawn) [A102]"
assay_value = 73

[[record]]
compound = "CCOC(=O)[C@H]1CC(N2CCC3(CC2)COc2c3ccc3c2CN(C2CCC(=O)NC2=O)C3=O)CCN1C1CC2(CCN(c3ccc([C@@H]4c5ccc(O)cc5CC[C@@H]4c4ccccc4)cc3)CC2)C1 (stereo partly drawn) [A113]"
assay_value = 52

[[record]]
compound = "O=C1CCC(N2C(=O)c3cc4c(cc3C2=O)OC2(CC4)CN(C3CCC4(CC3)CN(c3ccc(C5c6ccc(O)cc6CCC5c5ccccc5)cc3)C4)C2)C(=O)N1 (stereo not drawn) [B7]"
assay_value = -6

[[record]]
compound = "O=C1CCC(N2Cc3c(ccc4c3OC3(CC4)CCN(C4CCC5(CC4)CCN(c4ccc([C@@H]6c7ccc(O)cc7CC[C@@H]6c6ccccc6)cc4)CC5)CC3)C2=O)C(=O)N1 (stereo partly drawn) [L20]"
assay_value = 6

[[record]]
compound = "O=C1CCC(N2Cc3c(ccc4c3OCC43CCN(C4CCN(C(=O)C5CCN(c6ccc([C@@H]7c8ccc(O)cc8CC[C@@H]7c7ccccc7)cc6)CC5)[C@@H](C(=O)N5CC(F)(F)C5)C4)CC3)C2=O)C(=O)N1 (stereo partly drawn) [C4]"
assay_value = 75


Ref: patent EP4656642A1
